molecular target: Neuromedin-K receptor (Homo sapiens); test: Inhibition of [125I][MePhe]-NKB binding to human Tachykinin receptor 3 in CHO cells
Sequence (P29371 whole entry): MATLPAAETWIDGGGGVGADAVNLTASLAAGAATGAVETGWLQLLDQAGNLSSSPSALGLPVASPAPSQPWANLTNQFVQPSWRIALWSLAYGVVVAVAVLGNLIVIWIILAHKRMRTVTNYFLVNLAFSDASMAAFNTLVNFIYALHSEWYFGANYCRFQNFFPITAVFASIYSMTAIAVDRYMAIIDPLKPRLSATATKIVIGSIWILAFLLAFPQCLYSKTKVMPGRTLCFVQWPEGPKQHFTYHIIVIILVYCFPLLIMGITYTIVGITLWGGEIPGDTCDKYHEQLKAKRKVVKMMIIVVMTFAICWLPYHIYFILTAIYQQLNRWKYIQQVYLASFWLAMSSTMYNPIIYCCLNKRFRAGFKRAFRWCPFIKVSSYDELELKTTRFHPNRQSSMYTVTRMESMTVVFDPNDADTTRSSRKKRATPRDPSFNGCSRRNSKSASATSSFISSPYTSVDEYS
quantity: IC50 (µM)

a = COC(=O)C1(Cc2ccccc2)CCc2ccc(Cc3ccccc3)cc21 (stereo not drawn)
b = CC(C)(C)CNC(=O)C1(Cc2ccccc2)CCc2ccc(Cc3ccccc3)cc21 (stereo not drawn)
c = O=C(NCCc1ccccc1)C1(Cc2ccccc2)CCc2ccc(Cc3ccccc3)cc21 (stereo not drawn)
[ask] Using the list above, order everything by rising IC50. Write the labels out in the order the request specifies.
[reply] c, b, a
(c: 3 µM, b: 5.2 µM, a: 8 µM)

----------
molecular target: Substance-P receptor (Homo sapiens); assay: Inhibition of [125I]BH-SP binding to tachykinin NK1 receptor in human IM-9 cells; format: cell-based
Sequence (P25103 whole entry): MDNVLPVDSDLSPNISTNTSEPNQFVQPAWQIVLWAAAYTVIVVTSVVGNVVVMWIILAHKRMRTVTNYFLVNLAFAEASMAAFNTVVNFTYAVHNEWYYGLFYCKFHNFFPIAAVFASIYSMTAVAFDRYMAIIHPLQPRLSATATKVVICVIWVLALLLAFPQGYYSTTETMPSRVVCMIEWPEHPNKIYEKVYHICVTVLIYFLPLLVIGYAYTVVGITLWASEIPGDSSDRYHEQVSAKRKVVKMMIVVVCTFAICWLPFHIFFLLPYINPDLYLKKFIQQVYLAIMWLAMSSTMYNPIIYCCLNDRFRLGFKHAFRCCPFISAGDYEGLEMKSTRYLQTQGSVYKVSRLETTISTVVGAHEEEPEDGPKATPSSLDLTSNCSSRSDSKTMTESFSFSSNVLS
pIC50: −log10 of the molar value. Peptide text beside a SMILES is read from it. * marks the point of attachment. Cbz = O=C(OCc1ccccc1)*
quantity: pIC50

A = NC(=O)[C@H](Cc1ccccc1)NC(=O)[C@H](Cc1c[nH]c2ccccc12)NC(=O)OCc1ccccc1 (Cbz-Trp-Phe-NH2)
B = O=C(NCCc1ccccc1)C1(Cc2ccccc2)CCc2ccc(Cc3ccccc3)cc21 (stereo not drawn)
[ask] Please let me know which one, A or B , has a lower measured pIC50 value. Field: selected label. Fill in the label of the entry you choose.
[reply] A
(A: 5.03, B: 5.62)
